# molecule, melting point
records = [
    ("CCOC(=O)/C=C/c1cnc(-c2ccc(O)c(C34CC5CC(CC(C5)C3)C4)c2)cn1", "212 to 215 °C"),
    ("COC(=O)Cc1cc2c(c([N+](=O)[O-])c1)N(C(C)=O)CC2", "136 to 137 °C"),
    ("N#Cc1cc(CBr)ccc1Cl", "55 to 58 °C"),
    ("COc1cccc2c(=O)c3c(O)cc(OCC4CS4)cc3oc12 (stereo unspecified)", "187 °C"),
    ("O=C1CCCC2=C1C(c1cccc(C(F)(F)F)c1)C1=C(CCCC1)N2 (stereo unspecified)", "250 to 251 °C"),
    ("CC(C)[C@H](NC(=O)CCC(=O)c1ccccc1)C(=O)O", "118 to 120 °C"),
    ("Cc1nc2c(n1Cc1ccccc1)CCCC2=O", "115 °C"),
    ("CCCCc1ncc(CC(=O)NCC(=O)O)n1Cc1ccccc1Cl", "84 to 88 °C"),
    ("Clc1c2c(nc3cn[nH]c13)CCCC2", "190 to 193 °C"),
    ("Cc1cccc(NC(=O)NCC(=O)N(CC(=O)NCc2ccccc2)c2ccccc2)c1", "204 °C"),
    ("O=S(=O)(O)CCNCCO", "180 to 183 °C"),
    ("Cc1ccccc1-c1cc2cc(O)c(Cl)c(Cl)c2s1", "106 to 107 °C"),
    ("O=C(O)Cn1nc(-c2ccccc2O)nc1-c1ccccc1O", "231 to 233 °C"),
    ("Cc1cnc(N2CCC(c3ccc(NS(C)(=O)=O)cc3)CC2)n1C", "225 to 226 °C"),
    ("CCC1C(C)=NN=C(c2ccccc2F)c2cc(OC)c(OC)cc21 (stereo unspecified)", "86 to 88 °C"),
    ("COC(=O)c1ccc(-c2ccc3cc(C(=O)OCc4ccccc4)c(C45CC6CC(CC(C6)C4)C5)cc3c2)cc1", "143 to 144 °C"),
    ("COc1ccc(N2C3CCC2CC(=O)C3)cc1", "133 to 134 °C"),
    ("CC(C)(C)c1ccc(-c2cc(Nc3ccc4[nH]ccc4c3)nnc2-c2ccccc2)cc1", "138 to 140 °C"),
    ("O=c1[nH]c(C2CCCN(Cc3ccccc3)C2)cc2ccccc12 (stereo unspecified)", "176 to 178 °C"),
    ("CCCOc1cc2c(c3c(=O)c(-c4ccc(OC)cc4)cn(CCCN4CCOCC4)c13)CCC2", "135 to 137 °C"),
    ("O=C(O)c1cn(Cc2cccc(Oc3ccccc3)c2)nc1-c1ccccc1", "148 to 149 °C"),
]

----------
# molecule, melting point
data = [
    ("COc1cc(Cc2cnc(N)nc2N)c2c(c1OC)OC(C1CC1)C=C2 (stereo not given)", "229 °C"),
    ("CC(C)(C)c1ccc(Oc2ccc(NC(=O)c3ccccc3C(c3ccc(O)cc3)c3ccc(O)cc3)cn2)cc1", "121 to 125 °C"),
    ("CCOC(=O)c1cn(C2COC2)c2c(F)c(F)c(F)c(F)c2c1=O", "110 to 113 °C"),
    ("CNCC1=C(n2ccccc2=O)c2cc([N+](=O)[O-])ccc2OC1(C)C", "128 °C"),
    ("O=c1ccn(C2C=CC(COC(c3ccccc3)(c3ccccc3)c3ccccc3)O2)c(=O)[nH]1 (stereo not given)", "188 to 191 °C"),
    ("CC(C)(C)OC(=O)NC[C@H]1CC[C@H](CNS(=O)(=O)c2cccc3ccccc23)CC1", "199 to 200 °C"),
    ("CCc1c(C(=O)c2cc(C)cc(C)c2)n(CC=CC(=O)OC)c(=O)[nH]c1=O", "201 to 202 °C"),
    ("BrCCCCOc1ccc2c(ccn2-c2ccc(Br)cc2)c1", "80 to 81 °C"),
    ("NC(=O)c1cc(Cl)c(N[C@H]2CC[C@H](N)CC2)cc1F", "160 to 162 °C"),
    ("O=C(C=Cc1ccccc1[N+](=O)[O-])CC(=O)NC1CC1", "133 to 134 °C"),
    ("O=C(O)C1=CCC2CC(=O)C12 (stereo not given)", "52 to 56 °C"),
    ("OC(CNCCNc1cccc2cn[nH]c12)COc1ccccc1 (stereo not given)", "117 to 119 °C"),
    ("Nc1ccc2ccc(Oc3ccccc3Cl)nc2n1", "166 °C"),
    ("O=C1c2ccccc2C(=O)N1OCC/C=C/c1cccs1", "69 to 71 °C"),
    ("Oc1ncn(-c2ccccc2)n1", "281 to 282 °C"),
    ("O=P(O)(O)C(F)(F)c1ccc(CN(Cc2ccc(C(F)(F)P(=O)(O)O)cc2)S(=O)(=O)CCc2ccccc2)cc1", "181 to 183 °C"),
    ("COc1ccccc1-c1cccc(CC(NC(=O)c2c(Cl)cccc2Cl)C(=O)O)c1 (racemic)", "104 °C"),
    ("O=C(C=Cc1ccccc1)Nc1cccc(O)c1", "222 to 223 °C"),
    ("CNC(=O)C1(c2ccc([N+](=O)[O-])cc2)C2C=CC(C2)C1C(N)=O (stereo not given)", "164 to 166 °C"),
    ("O=CN1C(=O)[C@H]2N=C(Cc3ccccc3)O[C@H]21", "90 to 92 °C"),
]

----------
Known melting point of a selection of compounds
reported-metric: melting point

# compound, result
measured = [
    ("CC(C)SC1=C(Cl)CSS1=O (centres undefined)", "60 °C"),
    ("COc1ccc(S(=O)(=O)N2C(=O)C(c3ccccc3OC)(N3CCC[C@H]3C(=S)N(C)C)c3cc(Cl)ccc32)c(OC)c1 (some centres undefined)", "164 °C"),
    ("CNC(=O)C1=CC(COC)(COC)Oc2ccc([N+](=O)[O-])cc21", "147 to 149 °C"),
    ("CC(C)(Oc1ccc2c(c1)CC(NCc1ccccc1)CC2)C(=O)O (centres undefined)", "240 to 242 °C"),
    ("O=C1NC(=O)C(Cc2ccc(OCCC3OCCO3)cc2)S1 (centres undefined)", "102 to 104 °C"),
    ("CCc1cc(N(C)Cc2ccc3oc(-c4ccccc4C#N)cc3c2)n2nccc2n1", "143 °C"),
    ("Cc1cc(SC2=C(O)CC(CCc3csc(CO)c3)(C(C)C)OC2=O)c(C(C)(C)C)cc1CO (centres undefined)", "76 to 80 °C"),
    ("c1ccc(COc2cccc(OCc3ccccc3)c2OCc2ccccc2)cc1", "67 to 68 °C"),
    ("CC(=O)Nc1ccc2nc3ccccc3c(-c3cc(C)ccc3C)c2c1", "236 to 238 °C"),
]

----------
# molecule, melting point
rows = [
    ("CC(=O)N(C)c1c(I)c(NC(=O)CS(=O)(=O)CC(=O)O)c(I)c(C(=O)O)c1I", "> 300 °C"),
    ("N#CCCSc1nnsc1-c1ccccc1", "63.5 to 64.5 °C"),
    ("O=C(O)CCCCCCc1nc2c(F)c(F)cc(F)c2s1", "116 to 118 °C"),
    ("COc1c(C#N)c2cc(Cl)c(Cl)cc2n1C1OC(CO)C(O)C1O (stereo not drawn)", "245 to 246 °C"),
    ("COc1cc(-c2nc3ccccc3n2Cc2ccc(C)cc2)cc(OC)c1OC", "84.5 °C"),
    ("COCc1cc(C)nc2c(OCc3ccccc3)cccc12", "73.7 to 76.3 °C"),
    ("CCC(=O)N1C(=O)C2C=CC1C2 (stereo not drawn)", "54 to 56 °C"),
    ("Cc1ccccc1-c1c(NC(=O)Nc2ccc(F)cc2F)c(=O)oc2ccc(C)c(C)c12", "232 to 234 °C"),
    ("CC1(C)OC(C=Cc2ccccn2)=CC1=O", "87.5 to 89 °C"),
    ("CCc1nnc2c(N(C)C)nc3ccccc3n12", "155 to 158 °C"),
    ("Cn1c(CC(=O)NO)ccc1C(=O)c1ccc(Cl)cc1", "195 °C"),
    ("O=c1[nH]cc2n1-c1ccc(Cl)cc1C(c1ccccc1F)=NC2", "247 to 250 °C"),
    ("CCCCCCC(C)(C)c1cc(O)c(C2=C(CO)CCC(C)C2)c(O)c1 (stereo not drawn)", "155 to 156 °C"),
    ("CN1CCSc2c(C(=O)NC3CN4CCC3CC4)cc(Cl)cc21 (stereo not drawn)", "195 to 196 °C"),
    ("COc1cc(OC)nc(C(=O)O)n1", "155 to 157 °C"),
    ("CC1CN(c2c(F)cc3c(=O)c(C(=O)O)cn(C4CC4)c3c2Cl)CC1N (stereo not drawn)", "231 to 234 °C"),
    ("CC(C(O)c1cc(F)c(OCc2ccccc2)c(F)c1)N1CCC(O)(c2ccc(C(F)(F)F)cc2)CC1 (stereo not drawn)", "201 to 202 °C"),
    ("CNc1ccc2c(c1)N(C)C(=O)N(c1ccc(Cl)cc1)S2(=O)=O", "207 to 209 °C"),
    ("CCc1ccc2[nH]c(C(=O)OCc3ccccc3)cc2c1", "99 °C"),
    ("CCCCc1c(C(=O)OCC)cc(Oc2nnnn2-c2ccccc2)c2ccc(OC)cc12", "94 to 96 °C"),
    ("Cc1cc(OS(=O)(=O)C(F)(F)F)ccc1S(C)(=O)=O", "51 °C"),
    ("CCOC(=O)C(Cc1cc2ccccc2[nH]c1=O)NC(=O)c1ccc(OC)cc1 (stereo not drawn)", "206 to 208 °C"),
    ("NNC(=O)c1ccccc1-c1ccc([N+](=O)[O-])cc1", "194 to 196 °C"),
    ("CC1(C)C(=O)N(Cl)C(C)(C)C(=O)N1Cl", "176 to 178 °C"),
    ("O=C(C1=C(O)CCS1)c1nnn(Cc2ccccc2)c1Cl", "118 to 120 °C"),
    ("C[C@]1(CN2CCC(c3ccccc3)CC2)Cn2cc([N+](=O)[O-])nc2O1", "159 to 164 °C"),
    ("CC(Oc1ncn(-c2ccccc2)n1)C(=O)OCc1ccccc1 (stereo not drawn)", "78 to 80 °C"),
    ("CN(C)C(=O)Sc1ccc2ccncc2c1Cl", "140 to 142 °C"),
    ("Nc1nc2ccccc2c2c1ncn2CCOCC#Cc1ccc(Oc2ccccc2)cc1", "146 to 148 °C"),
    ("Cc1cnc2c(NC(=O)c3ccccc3[N+](=O)[O-])ccc(C)c2c1-n1ccnc1", "231 to 233 °C"),
    ("CS(=O)(=O)N1CCN([C@@H](CNC(=O)c2ccc(OCc3ccccc3)cc2)C(=O)NO)CC1", "150 °C"),
    ("O=C(O)C(=O)c1cc(F)c(OCCOc2ccc3ccccc3c2)c(F)c1", "129 to 130 °C"),
    ("CC(C)(C)c1cc(C(C)(C)C)n(Cc2ccc(COc3ccc(CCC(=O)O)c(F)c3)cc2)n1", "152 to 153 °C"),
    ("COc1ccc(CBr)cc1-c1nsc2ccc(-n3c(=O)cc(C(F)(F)F)n(C)c3=O)cc12", "158 to 160 °C"),
    ("CCCCCCCCCC(=O)Nc1cc(NC(=O)CCCCCCCCC)cc(C(=O)O)c1", "208 to 209 °C"),
    ("Cn1nnnc1Cn1nnnc1Cl", "138 to 140 °C"),
    ("CCCc1cc(=O)oc2cc(O)ccc12", "135 to 137 °C"),
    ("Nc1cc2nc(O)c(O)nc2c2ccccc12", "> 300 °C"),
    ("Cn1ccnc1Sc1ccc(I)cc1Cl", "99 to 101 °C"),
    ("CN(CCOc1ccc(CC(F)C(=O)O)cc1)c1nc2ccccc2o1 (stereo not drawn)", "146 to 148 °C"),
    ("CSc1cnc2cc(-c3cccc(Cl)c3)sc2c1O", "> 300 °C"),
    ("COC1=C(OC)C(=O)C(N=[N+]=[N-])=C(C)C1=O", "48 to 50 °C"),
    ("COCCNc1c([N+](=O)[O-])cnc2ccccc12", "113 to 115 °C"),
]
